# System name: panel of 442 kinases (Homo sapiens)
# Construct: purchased KINOMEscan
# Sequence (Q9Y6E0 whole entry): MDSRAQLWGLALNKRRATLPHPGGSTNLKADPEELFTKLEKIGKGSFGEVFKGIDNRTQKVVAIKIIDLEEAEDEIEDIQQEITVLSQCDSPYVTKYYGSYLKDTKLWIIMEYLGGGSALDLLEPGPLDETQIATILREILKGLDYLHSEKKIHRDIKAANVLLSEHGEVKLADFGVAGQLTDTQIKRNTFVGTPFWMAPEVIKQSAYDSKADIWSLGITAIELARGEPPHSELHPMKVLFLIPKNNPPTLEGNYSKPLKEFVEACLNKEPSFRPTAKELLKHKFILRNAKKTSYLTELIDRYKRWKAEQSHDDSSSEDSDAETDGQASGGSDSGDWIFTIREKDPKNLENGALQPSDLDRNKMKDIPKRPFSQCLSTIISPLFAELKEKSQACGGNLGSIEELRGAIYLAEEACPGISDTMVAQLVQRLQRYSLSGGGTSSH
# Assay type: binding
# Setup conditions: Compound Concentration 10 µM
Result type: KINOMEscan: MST3

Would you please look over these solved cases?
{"columns": ["Compound", "Result"],
 "data": [
  ["COc1cc(C(=O)N2CCC(N3CCN(C)CC3)CC2)ccc1Nc1ncc2c(n1)N1CCc3cccc(c31)C(=O)N2C [Compound 24]", 73],
  ["COc1cc(C(=O)N2CCC(N3CCN(C)CC3)CC2)ccc1Nc1ncc2c(n1)N(C1CCCC1)c1ccccc1C(=O)N2C [Compound 25]", 88],
  ["COc1cc(C(=O)N2CCC(N3CCN(C)CC3)CC2)ccc1Nc1ncc2c(n1)N(C)c1ccccc1C(=O)N2C [15 (LRRK2-IN-1)]", 87]
]}

Please find the next compound below.
Reported KINOMEscan: MST3 of CCOc1cc(C(=O)N2CCC(N3CCN(C)CC3)CC2)ccc1Nc1ncc2c(n1)N(C1CCCC1)c1ccccc1C(=O)N2C [Compound 26] : 100
